system: M14 melanoma; assay: NCI tumour cell line growth inhibition, 48 h
Measured GI50 accompanies every entry in the list below.

| molecule | target or system | GI50 |
| --- | --- | --- |
| CCCCCCCCCCCCCCCCCc1nccn1CCOCCO | M14 melanoma | 6.69 µg/mL |
| N#Cc1c(NCc2ccccc2)nc(NCc2ccccc2)c(C#N)c1-c1ccc(O)cc1 | M14 melanoma | 29.9 µM |
| COC(=O)C1=C(O)[C@H](C(=O)OC)C2(O)C(C(=O)OC)[C@H](c3ccc(OC(=O)C(C)c4ccccc4)cc3)C[C@@H]1[C@@H]2C(=O)OC (stereo partly drawn) | M14 melanoma | 34.9 µM |

====

tested on: HCT-116 colon; assay: NCI tumour cell line growth inhibition, 48 h

| compound | target or system | TGI |
| --- | --- | --- |
| O=C(CN(C(=O)OC12CC3CC(CC(C3)C1)C2)C(=O)OC12CC3CC(CC(C3)C1)C2)Oc1ccc([N+](=O)[O-])cc1 | HCT-116 colon | > 100 µM |
| CSc1c(C2=C(c3cn(C)c4ccccc34)C(=O)NC2=O)c2ccccc2n1C | HCT-116 colon | > 25 µM |
| CC(=O)OC1CCC2(C)C(CCC3C2CC(=O)C2(C)C3CC(N3CC3)C2C(C)=O)C1 (stereo not drawn) | HCT-116 colon | > 100 µM |

====

test system: M14 melanoma; assay: NCI tumour cell line growth inhibition, 48 h
Measured TGI accompanies every entry in the list below.
readout name: TGI

| structure smiles | experimental value |
| --- | --- |
| Cc1cccc(Br)[n+]1[O-] | > 100 µM |
| CC1(C)[C@@H]2C[C@H]1[C@@H](Cc1cccc(C[C@H]3c4cc(-c5ccccn5)ncc4[C@H]4C[C@@H]3C4(C)C)c1)c1cc(-c3ccccn3)ncc12 | > 100 µM |
| NS(=O)(=O)c1nnc(NC(=O)C23CC4CC(CC(C4)C2)C3)s1 | > 100 µM |
| COc1ccc(C#Cc2ccc(=O)oc2-c2cc(OC)c(OC)c(OC)c2)cc1O | > 51.6 µM |
| O=C1CSC(=S)N1c1ccco1 | > 100 µM |
| COc1ccc([N+](=O)[O-])c2c(NCCCN(C)C)ccnc12 | 20.8 µM |

====

Measured TGI accompanies every entry in the list below.
system: NCI-H522 lung; experiment: NCI tumour cell line growth inhibition, 48 h
readout name: TGI

| compound | readout name | experimental value |
| --- | --- | --- |
| COc1ccc(OC)c(NCC(=O)Nn2cnc3ccc(S(=O)(=O)Nc4cc(OC)ccc4OC)cc3c2=O)c1 | TGI | > 100 µM |
| C=CC(O)(CBr)CCC(Br)C(=C)C (stereo not drawn) | TGI | > 10 µM |
| Oc1ccc([C@H]2c3c(O)cc(O)cc3C3c4c(cc(O)cc4[C@@H]2[C@H]2c4cc(O)cc5c4C(c4cc(O)cc(O)c4[C@@H]2c2ccc(O)cc2)[C@@H](c2ccc(O)cc2)O5)O[C@@H]3c2ccc(O)cc2)cc1 (stereo partly drawn) | TGI | > 100 µM |

====

Measured TGI accompanies every entry in the list below.
tested on: ACHN renal; assay: NCI tumour cell line growth inhibition, 48 h

| compound | TGI |
| --- | --- |
| CCOP(=O)(OCC)/C(C#N)=C/c1cccn1C(C)C | > 100 µM |
| COc1cc(-c2nccc3cc(OC)c(OC)cc23)ccc1O | > 100 µM |
| NCCSc1cc(O)c2c(c1N)C(=O)c1ccccc1C2=O | > 100 µM |
| CC1(C)S[C@@H]2[C@H](N3C(=O)c4ccccc4C3=O)CN2[C@H]1NC(=O)N[C@@H]1N2C[C@@H](N3C(=O)c4ccccc4C3=O)[C@H]2SC1(C)C | > 100 µM |
| CCC(C)C(N)C(=O)NC(CC(N)=O)C(=O)NC(CC(C)C)C(=O)NC(CCCCN)C(=O)NC(C)C(=O)NC(CC(C)C)C(=O)NC(C)C(=O)NC(C)C(=O)NC(CC(C)C)C(=O)NC(C)C(=O)NC(CCCCN)C(=O)NC(CCCCN)C(=O)NC(C(=O)NC(CC(C)C)C(N)=O)C(C)CC (centres undefined) | 27.2 µM |
| COC1C(O)CC(OC2CC(OC3CC(O[C@@H]4C(=O)c5c(cc6cc(OC7CC(OC8CC(O)C(O)C(C)O8)C(O)C(C)O7)c(C)c(O)c6c5O)CC4[C@H](OC)C(=O)O)OC(C)C3O)OC(C)C2O)OC1C (some centres undefined) | > 33.3 µM |
| COC(=O)c1c(C(=O)OC)c2ccccn2c1-c1cc(OC)c(Br)c(=O)o1 | > 100 µM |
| O=C(O)/C(Cl)=C(\Cl)C(=O)c1ccccc1 | > 100 µM |
| COc1ccc(C#Cc2ccc(=O)oc2-c2cc(OC)c(OC)c(OC)c2)cc1O | > 100 µM |
